Experiment: yeast display, Sf9 membrane polyspecificity reagent, FACS + sequencing; frameworks hold sequencing errors
observed-property: polyreactivity (PSR sort gate)

Example entries begin here.
sequence-text	observed-property	result
QVPLVESGGGLVQAGGSLRLSCAASGSTLAANAMGWYRQAPGKERELVAAIDGGGSTYYADSVKGRFTISRDNAKNTVYLQMNILKPDDTAVYYCATPYVWTITQKKYDYWGQGTQVTVSS	polyreactivity (PSR sort gate)	low polyreactivity
QVQLVESGGGLVQAGGSLRLSCAASGGTFSVYVMGWYRQAPGKERELVAAIRDRGVSTYYADSVKGRFTISRDNAKNTVYLQMNSEKPEDTAVSYCAAKYSYSRKPGAYYYWGQGTQVTVSS	polyreactivity (PSR sort gate)	high polyreactivity
QVQLVESGGGIVQAGGSLRLSCAASGYTFGTYAMGWYRQAPGKERELVAAITSTGGRTYYADSVKGRFTISRDNAKNTVYLQMNSLKPEDTAVYYCAAERVYRTIWHYPYYYWGQGTQVTVSS	polyreactivity (PSR sort gate)	high polyreactivity
QVQLVESGGGLVQAGGSLRLICAASGSTLYRNAMGWYRQARGKERELVAAISSSGGTTFYADSVKGRFTISRDNAKNTVYLQMNSLKPEDTAVYYCNRTARKLLTVHSSVVGLDYWGQGSQVTVSS	polyreactivity (PSR sort gate)	low polyreactivity

Please look at the following sequence next.
Note polyreactivity (PSR sort gate) for the sequence shown: QVQLVESGGGLVQAGGSLRLSCAASGSTFSRYAMGWYRQAPGKERELVAAISWSGGRTNYADSVKGRFTISRDNAKNTVYLQMNSLKPEDTAVYYCNAPFRHRYRVDYWGQGTQVTVSS
high polyreactivity
